subject.of.test: GlcA(b1-3)GlcNAc
assay.explanation: glycan array binding signal (z-score within array); higher = stronger binding
applied.conditions: glycan notation: IUPAC condensed, linker removed
This is one part of a sample in which the strongest signals are shown more often than they occur.
reported.property: glycan array binding signal (z-score)
I only need the number, thanks.

[in] What value of glycan array binding signal (z-score) has been reported for the following binder? CFEM-CGl (Candida glabrata), Q6FRS0 (protein) VLATPPACLLACVAQVSKQSSQCHTLNQVGCFCENENTAIKNCLDSICPNGNSDAAYTAFKNSCGDVGKAVASV
[out] -0.457

[in] What value of glycan array binding signal (z-score) has been reported for the following binder? F17-L (Escherichia coli) (protein) GPDDYVPSQIAVNTSTLPGVVIGPADAHTYPRVIGELAGTSNQYVFNGGAIALMRGKFTPALPKIGSITYTFHQGNSRDSSDFDIYDIGVSGLGIIIGMAGYWPATPLVPINSSGIYIDPVGANTNPNTYNGATASFGARLFVAFVATGRLPNGYITIPTRQLGTILLEAKRTSLNNKGLTAPVMLNGGRIQVQSQTHHHHHH
[out] 1

[in] Requested field: glycan array binding signal (z-score). Item: AFL (Aspergillus fumigatus), Q4WW81 (protein) STPGAQQVLFRTGIAAVNLTNHLRVYFQDVYGSIRESLYEGSWANGTEKNVIGNAKLGSPVAATSKELKHIRVYTLTEGNTLQEFAYDSGTGWYNGGLGGAKFQVAPYSRIAAVFLAGTDALQLRIYAQKPDNTIQEYMWNGDGWKEGTNLGGALPGTGIGATSFRYTDYNGPSIRIWFQTDDLKLVQRAYDPHKGWYPDLVTIFDRAPPRTAIAATSFGAGNSSIYMRIYFVNSDNTIWQVCWDHGKGYHDKGTITPVIQGSEVAIISWGSFANNGPDLRLYFQNGTYISAVSEWVWNRAHGSQLGRSALPPA
[out] -0.361

[in] glycan array binding signal (z-score) for SSP1 (Sclerotinia sclerotiorum), XP_001584968 (protein) MGSSHHHHHHSSGLVPRGSHMSLLTTELACTSAPDQVLHLFFQDGQNILEARSPDGGNVWTTQDTIIAKDGDYNGSSMTCYYVDKDANFDNQPSIHLLYMNKDKQLTEKVKRMKGDNPIWEDAKVPDEVRKGPEQYSKLTSGSFNQGTGWNPNGSQWAYFSASKDGKMGIVEIRRTPKDPWHTETILEEKWGDELPGTALACVIGNGKIRVFLQHHDYSIILYENQNNTWHDRGTFIPKDKVQATTPLACTMTKDGSVHLFYVSKSNKIIHCTDGKKEEELINFFPGSKLGATSVENKITLFFRNLNPVNEVGTLENENGSWKHGTTVIPA ?
[out] 0.484

[in] What measured glycan array binding signal (z-score) goes with FimA-N2 (Actinomyces oris) (protein) MHHHHHHSSGVDLGTENLYFQSNAWIYDVNVYPKNEAIDVDKTIQAQKLNGYGVGSLIKFPVESTAPTLDAKSFYKYFQLKDTLDERLSEVTATDVSLEGTPLQPTDYKVETKQQTVTVTFTAEGLKKIKAAPGKKVSAVFQGKVTKAGNGAITNRAQVISDTLYAEQPPTPETPPTDPENPPTSDEVISRWGDLSIKKVDTHQQGQTKA ?
[out] 0.654

[in] I'd like to know its glycan array binding signal (z-score). The binder in question is PEB4 (Campylobacter jejuni), A1VYV6 (protein) MKKFSLVAAALIAGVALNVNAATVATVNGKSISDAEVSEFFAPMLRGQDFKTLPDNQKKALIQQYIMQDLILQDAKKQNLEKDPLYTKELDRAKDAILVNVYQEKILNTIKIDAAKVKAFYDQNKDKYVKPARVQAKHILVATEKEAKDIINELKGLKGKELDAKFSELAKEKSIDPGSKNQGGELGWFDQSTMVKPFTDAAFALKNGTITTTPVKTNFGYHVILKENSQAKGQIKFDEVKQGIENGLKFEEFKKVINQKGQDLLNSAKVEYK
[out] 0.752
